Just for reference, ChEMBL document CHEMBL3580562 is where these values come from.

- Protocol summary: AUC in dog at 10 mg/kg, po
- Format: ADME, organism-based, Canis lupus familiaris
- Condition info: in vivo
Measured metric: AUC (ng·h/mL)
Please state the figure in ng·h/mL; there is no need to write the unit.

Q. Fill in the blank: the reported AUC of CC/C(=C(/c1ccc(/C=C/C(=O)O)cc1)c1ccc2[nH]ncc2c1)c1ccc(F)cc1Cl is ____.
A. 69000
